Target: T1, human VEGF (hVEGF) (human, UniProt P15692 181-395)
T1 construct: also called VEGF-A
T1 sequence: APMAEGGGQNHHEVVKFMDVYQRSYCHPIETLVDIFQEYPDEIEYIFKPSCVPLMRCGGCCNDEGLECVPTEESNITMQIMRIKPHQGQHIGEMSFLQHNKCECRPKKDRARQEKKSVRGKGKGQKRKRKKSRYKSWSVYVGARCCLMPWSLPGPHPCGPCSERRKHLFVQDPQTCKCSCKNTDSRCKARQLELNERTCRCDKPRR
Experiment: SPR single-cycle;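 note: fab variants injected over hVEGF immobilized on a CM5 chip (Biacore T200), threefold dilution series from 0.02 to 50 nM, kinetics fitted with a 1:1 Langmuir model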
QUANTITY MEASURED: koff
Write the numeric value and append its unit.

Using known records, supply koff for G6.31 HC-Y56K (Fab, name in Kabat numbering, V domains shown, Fab) VH: EVQLVESGGGLVQPGGSLRLSCAASGFTISDYWIHWVRQAPGKGLEWVAGITPAGGKTYYADSVKGRFTISADTSKNTAYLQMNSLRAEDTAVYYCARFVFFLPYAMDYWGQGTLVTVSS VL: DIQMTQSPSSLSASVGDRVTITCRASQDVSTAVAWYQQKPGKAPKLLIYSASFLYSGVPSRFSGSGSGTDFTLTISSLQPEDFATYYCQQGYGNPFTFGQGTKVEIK 0.000699 s⁻¹

Using known records, supply koff for G6.31 HC-Y58E (Fab, name in Kabat numbering, V domains shown, Fab) VH: EVQLVESGGGLVQPGGSLRLSCAASGFTISDYWIHWVRQAPGKGLEWVAGITPAGGYTEYADSVKGRFTISADTSKNTAYLQMNSLRAEDTAVYYCARFVFFLPYAMDYWGQGTLVTVSS VL: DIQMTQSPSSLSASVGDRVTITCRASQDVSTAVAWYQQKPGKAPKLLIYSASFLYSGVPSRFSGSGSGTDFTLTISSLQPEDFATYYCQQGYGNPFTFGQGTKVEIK 0.000508 s⁻¹

Using known records, supply koff for G6.31 LC-S77E (Fab, V domains shown, Fab) VH: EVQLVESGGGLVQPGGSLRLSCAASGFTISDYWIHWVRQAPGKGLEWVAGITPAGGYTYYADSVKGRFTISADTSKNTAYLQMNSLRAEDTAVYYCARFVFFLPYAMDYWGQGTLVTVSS VL: DIQMTQSPSSLSASVGDRVTITCRASQDVSTAVAWYQQKPGKAPKLLIYSASFLYSGVPSRFSGSGSGTDFTLTISELQPEDFATYYCQQGYGNPFTFGQGTKVEIK 0.000399 s⁻¹

Cited source: patent US20210115124A1
